experiment: BT084 cell growth, single and combined drugs, ICGC_MB145, cisplatin and BGB IC40 combos (AID 1671461); conditions: BT084 medulloblastoma cells, drug combinations, cisplatin combination, at 0.5 µM, stronger effect = higher value;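 also: cells exposed to drugs for 96 hours; 0% = vehicle DMSO and 100% = high DMSO full killing control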
ENDPOINT: inhibition (%)
Please respond with the number in % and leave the unit unwritten.

- COMPOUND: "CC(N)C12CC3CC(CC(C3)C1)C2 (centres undefined)"
  inhibition, %: -18.2
- COMPOUND: "Cc1nc2ccc(CN(C)c3ccc(C(=O)N[C@@H](CCC(=O)O)C(=O)O)s3)cc2c(=O)[nH]1"
  inhibition, %: 4.81
- COMPOUND: "CCn1cc(C(=O)O)c(=O)c2cc3c(cc21)OCO3"
  inhibition, %: 15.9
- COMPOUND: "CCN1CCN(c2cc3c(cc2F)c(=O)c(C(=O)O)cn3C2CC2)CC1"
  inhibition, %: -21.3

**Query** Look at this compound and give its reported inhibition. `Cc1ccnc2c1NC(=O)c1cccnc1N2C1CC1`
**Result** -7.59

**Query** Look at this compound and give its reported inhibition. `Cc1oncc1C(=O)Nc1ccc(C(F)(F)F)cc1`
**Result** -5.97

**Query** Look at this compound and give its reported inhibition. `C[C@H]1COc2c(C3(N)CC3)c(F)cc3c(=O)c(C(=O)O)cn1c23`
**Result** -17.3

**Query** Look at this compound and give its reported inhibition. `Nc1nc(=S)c2[nH]cnc2[nH]1`
**Result** -11.9

**Query** Look at this compound and give its reported inhibition. `CN(C)c1ccc(C(=C2C=CC(=[N+](C)C)C=C2)c2ccc(N(C)C)cc2)cc1`
**Result** 82.8

====

test: viability loss with induced miR-34 in A549 – imaging, A549 dox-inducible miR-34, nuclei and caspase counts, primary screen (AID 1347080); details: A549 miR-34 inducible, Hoechst nuclei count, 48 h; measured here: total cells with miR-34 induction; stronger effect = lower value
Form field: cell count (one value per entry).
Keep it simple and answer with nothing but the number.

// solved cases for cell count follow
- COMPOUND_STRUCTURE: "CN(C)CCc1c[nH]c2ccc(CS(=O)(=O)N3CCCC3)cc12"
  cell count: 7180
- COMPOUND_STRUCTURE: "COCCCOc1cc(C[C@@H](C[C@H](N)[C@@H](O)C[C@H](C(=O)NCC(C)(C)C(N)=O)C(C)C)C(C)C)ccc1OC"
  cell count: 8860
- COMPOUND_STRUCTURE: "OCc1cccnc1"
  cell count: 8900
- COMPOUND_STRUCTURE: "CN(C)CC/C=C1/c2ccccc2COc2ccc(CC(=O)O)cc21"
  cell count: 9640
- COMPOUND_STRUCTURE: "CC(=O)O[C@H]1C[C@@H]2CC[C@@H]3[C@H](CC[C@@]4(C)[C@H]3C[C@H]([N+]3(C)CCCCC3)[C@@H]4OC(C)=O)[C@@]2(C)C[C@@H]1N1CCCCC1"
  cell count: 8710
- COMPOUND_STRUCTURE: "NCCCC(=O)O"
  cell count: 10000

**Query** Look at this compound and give its reported cell count. `CC[C@]12CCCN3CCc4c(n(c5ccccc45)C(=O)C1)[C@@H]32`
**Result** 3350

**Query** Look at this compound and give its reported cell count. `CCC(=O)c1c(O)cc(O)cc1O`
**Result** 7860

**Query** Look at this compound and give its reported cell count. `Cc1cccc(C(=O)O)c1O`
**Result** 8670

**Query** Look at this compound and give its reported cell count. `O=C(O)c1ccccc1OP(=O)(O)O`
**Result** 9100

**Query** Look at this compound and give its reported cell count. `CN(C)CC[C@@H](c1ccc(Cl)cc1)c1ccccn1`
**Result** 9880
